max response, negative = inhibition values by entry
- ASSAY SYSTEM: D(3) dopamine receptor (Homo sapiens)
- ASSAY REMARKS: qHTS of D3 Dopamine Receptor Antagonist: qHTS; further: on the % scale 0 is the no-effect control and ±100 the full control effect
- EXPERIMENTAL SETUP: D3R cells, DiscoveRx beta-arrestin luminescence, antagonist mode; stronger effect = lower value
Among all 360,000 compounds or so, about 9,100 (2.5%) were called active. About 4% were inconclusive and are not listed. The full list was thinned out, with actives kept by preference.

| COMPOUND | max response, negative = inhibition |
| --- | --- |
| COc1ccc2sc(-c3ccccc3OC)c(-c3ccc(OCCN4CCCC4)cc3)c2c1 | -83.2% (active) |
| OCCC#Cc1ccc(N2C(c3ccsc3)=Cc3ccc(F)cc3C2c2c[nH]c3ccccc23)cc1 (stereo not drawn) | -3.75% (inactive) |
| CCOC(=O)N1CCN(C(c2ccnc3ccccc23)c2nnnn2-c2c(C)cccc2C)CC1 (stereo not drawn) | -7.2% (inactive) |
| C#CCOCCOCCOCCNc1nc(N2CCN(C(=O)[C@H](C(C)C)n3cc(CCO)nn3)CC2)nc(N2CCN(C(=O)[C@H](C(C)C)n3cc(CCO)nn3)CC2)n1 | 8.41% (inactive) |
| O=C(/C=C/NNC(=O)c1cccc(Br)c1)c1ccccc1 | 0% (inactive) |
| Cc1ccc(NC(=S)N(CCN2CCCCC2)Cc2ccco2)cc1C | -70.4% (active) |
| CCc1ccccc1NC(=S)N(CCN1CCCCCC1)Cc1ccco1 | -28.8% (inactive) |
| C[C@H](CO)N1C[C@H](C)[C@@H](CN(C)S(=O)(=O)c2ccc(F)cc2)OCc2cnnn2CCCC1=O | -22.3% (inactive) |
| CCc1ccccc1NC(=O)[C@@H]1CCC(=O)N1C1OC(=O)c2c1ccc(OC)c2OC (stereo partly drawn) | -18.1% (inactive) |
| COc1ccccc1C(=O)Nc1ccc(NC(=O)c2ccco2)c(C)c1 | 2.58% (inactive) |
| Cc1ccc(NC(=S)N(Cc2ccco2)C(C)c2cccs2)cc1 (stereo not drawn) | 10.5% (inactive) |
| COc1cccc(CNC(=O)[C@@H]2CCCN2C(=O)[C@@H]2CCCN2C(=O)c2ccccc2)c1 | -10.4% (inactive) |
| Cc1cc(C)nc(N(C#N)CC(=O)Nc2ccccc2)n1 | -15.5% (inactive) |
| Cc1cc(=O)c2ccc(NC(=O)c3ccccc3)cc2[nH]1 | 13.3% (inactive) |
| CC1(C(=O)NCC2CCOCC2)Cc2c(-c3cccc(C(N)=O)c3)ccnc2O1 (stereo not drawn) | -8.42% (inactive) |
| COCCNc1ncnc2c1ncn2[C@H]1CN(CCN2CCOCC2)C[C@@H](CO)O1 | -14.7% (inactive) |
| COc1ccc([C@H]2CC(=O)C[C@@H](CCn3cc(CC4CCCC4)nn3)O2)cc1 | 5.27% (inactive) |
| CCN1C(=O)[C@@H]2[C@@H]3CN(S(=O)(=O)c4ccccc4C)[C@@H](c4ccc(Cl)cc4)[C@@H]3C(=O)C[C@@H]2C1=O | -17.8% (inactive) |
| O=C1NC(Cc2ccccc2)c2nc3ccc(Br)cc3c(=O)n2-c2cc3ccccc3cc21 (stereo not drawn) | -0.847% (inactive) |
| CCCS(=O)(=O)NC(=O)C1(C)CCN(C(=O)c2sccc2C)C1 (stereo not drawn) | 18.5% (inactive) |
| COc1ccc2nc(-c3ccccn3)ccc2c1 | -12.3% (inactive) |
| COc1cnc(-c2ccccn2)nc1Oc1ccc(C(C)(C)C)cc1 | -52.8% (active) |
| COCOCCn1cc(CN2CCS(=O)(=O)N(Cc3ccc(-c4ccc(OC)cc4)cc3)C(CC(C)C)C2=O)nn1 (stereo not drawn) | 10.8% (inactive) |
| Cc1cccc(OCC(=O)Nc2ccc(NC(=O)c3ccco3)c(C)c2)c1 | -6.83% (inactive) |
| CCc1ccc([C@@H]2CC(=O)[C@@H]3CN(S(=O)(=O)c4ccc(C)cc4)[C@H](c4ccc(Cl)cc4)C[C@@H]3N2S(=O)(=O)c2ccc(C)cc2)cc1 | 0% (inactive) |
| COc1ccc(-c2csc(Nc3cccc(C)n3)n2)cc1OC | 42.5% (inactive) |
| CC(=O)Nc1c(-c2ccc(C)cc2)nc2ccc(Cl)cn12 | -4.26% (inactive) |
| COc1ccc(S(=O)(=O)N[C@@H]2C=C[C@@H](CC(=O)N3CCc4ccccc4C3)O[C@@H]2CO)cc1 | -0.0851% (inactive) |
